The reported measurements were obtained from PubChem BioAssay (NCI).

# Test system: UO-31 renal
# MEASUREMENT_NOTES: NCI tumour cell line growth inhibition, 48 h; in the data active = GI50 below about 0.43 µM; inactive = the rest
# output must be one of True = active, False = inactive

Status in this test for COc1cc(/C=C2\CN(S(=O)(=O)c3ccc(C)cc3)C/C(=C\c3cc(CN4CCCCC4)c(O)c(OC)c3)C2=O)cc(CN2CCCCC2)c1O ? False

----------
Measured TGI by item
# System: HCT-116 colon
# MEASUREMENT_NOTES: NCI tumour cell line growth inhibition, 48 h
Please respond with the number in µM and leave the unit unwritten.

Item under review: CCC(c1ccc(OC)cc1)C(CC)c1ccc(O)c(CN2CCCC2)c1 (stereo not given) . Reported TGI? 12.5

Next entry: O=C1OC[C@@H]2Cc3c([nH]c4ccccc34)[C@@H](c3cc(O)c(O)c(O)c3)N12 61.5

Okay, now this compound:
Item under review: O=CC1OC(=O)c2cc(O)c(O)c(O)c2-c2c(cc(O)c(O)c2O)C(=O)OC1C(O)C(O)CO (stereo not given) . Reported TGI? 81.1

----------
# System: XF 498 CNS
# MEASUREMENT_NOTES: NCI tumour cell line growth inhibition, 48 h
Measured TGI by item
Please respond with the number in µM and leave the unit unwritten.

Consider the reported TGI for these molecules:
Item under review: COc1cc([C@@H]2c3cc4c(cc3[C@@H](NCc3ccc(C#N)cc3)C3COC(=O)[C@@H]32)OCO4)cc(OC)c1O (some centres not stated) . Reported TGI? 2.85

Next entry: CC(C)Cc1ccc(C(C)/C=C2\CCC(CN3CCCC3)C2=O)cc1 (configuration not stated) 22

---
Item under review: CC1=C(/C=C/C2=CC(=C\C(=O)O)/CC(C3=C(C)CCCC3(C)C)C2)C(C)(C)CCC1 (configuration not stated) . Reported TGI? 27.4

----------
# System: MDA-MB-435
# MEASUREMENT_NOTES: NCI tumour cell line growth inhibition, 48 h
ASSAY_READOUT: TGI

Item under review: CN[C@@H](C)[C@H](OP(=O)(O)OC1[C@@H](O)[C@H](O)C(O)[C@H](O)[C@@H]1O)c1ccccc1 (stereo partly specified) . Reported TGI? > 100 µM

Next entry: CC(C)(C)OC(=O)NC(Cc1ccc(OCc2ccccc2)cn1)C(=O)N1CCSCC1 (stereo unspecified) > 100 µM

Next entry: COC1CC2C=CC3C4OC2(/C(C)=C/C(C)C(C(C)O)OC1=O)C3C(O)C(C)C4OC(=O)c1ccc[nH]1 (stereo unspecified) > 100 µM

---
Item under review: O=c1ccccc(-c2ccc(-c3ccco3)cc2)c1O . Reported TGI? > 100 µM

----------
# System: HL-60(TB) leukemia
# MEASUREMENT_NOTES: NCI tumour cell line growth inhibition, 48 h
Decide using TGI: a value greater than or equal to 2 µM is class 1, a smaller one is class 0.

I'd appreciate it if you could say whether COc1cc(/C=C/C(=O)N[C@@H]2C(=O)N3[C@@H]2SC(C)(C)[C@@H]3C(=O)O)cc(OC)c1OC has TGI at least equal to 2 µM. class 1

---
I'd appreciate it if you could say whether COc1cc([C@@H]2c3cc4c(cc3[C@H](OC(C)=O)[C@H]3COC(=O)[C@H]23)OCO4)cc(OC)c1OC has TGI at least equal to 2 µM. class 0

Next entry: O=C1/C(=C/c2ccccc2Br)COc2ccc(O)c(O)c21 class 1

Next entry: O=C1CC2C(=O)C1C(C(=O)O)C2C(=O)O (configuration not stated) class 1

Next entry: CN(C)c1ccc2cc(-c3cc4c(oc3=O)-c3ccccc3OC4O)c(=O)oc2c1 (configuration not stated) class 1

Next entry: O=S(=O)(NCCCNc1cc(-c2cn(-c3ccccc3)nc2-c2cccc(O)c2)ccn1)c1cccc2ccccc12 class 1

Next entry: Clc1ccc2c(NCCNc3ccnc4cc(Cl)ccc34)ccnc2c1 class 1

Next entry: COC(=O)c1cc2c3c(cc(O)c2[nH]1)N(C(=O)C1Cc2cc(OC)c(OC)c(OC)c2N1)CC3CCl (configuration not stated) class 0

----------
# Test system: IGROV1 ovarian
# MEASUREMENT_NOTES: NCI tumour cell line growth inhibition, 48 h
ASSAY_READOUT: TGI

Item under review: Oc1ccc2ccccc2c1N=Nc1ccccn1 . Reported TGI? 8.14 µM

Next entry: C=Cc1cc2c(cc1O)CC[C@@H]1[C@@H]2CC[C@]2(C)[C@@H](O)CC[C@@H]12 19.3 µM

Next entry: CC([C@H]1CCC2C3CCC4CC5(CC[C@]4(C)C3CC[C@@]21C)c1ccccc1C(=O)N5C)N(C)C (stereo not given in full) > 100 µM

Next entry: CC1Cc2c(N)nc(N3CCOCC3)nc2NC1=O (stereo not given) > 100 µM

Next entry: CC1=C(/C=C/C2=CC(=C\C(=O)O)/CC(C3=C(C)CCCC3(C)C)C2)C(C)(C)CCC1 (stereo not given) 26.4 µM

----------
# Tested on: NCI-H460 lung
# MEASUREMENT_NOTES: NCI tumour cell line growth inhibition, 48 h; in the data active = GI50 below about 0.43 µM; inactive = the rest
# output must be one of true = active, false = inactive

Worked examples follow.
Status in this test for CNC(=O)c1cncc(/C=C/c2c(C)cccc2C)c1 ? false

Next entry: O=C1c2cccc3cc([N+](=O)[O-])cc(c23)C(=O)N1CCN1CCCC1 true

Next entry: N=C1C(c2nc3ccccc3s2)=C(O)CN1c1ccc(Cl)cc1Cl false

Next entry: COc1c(B(O)O)cccc1-c1nc2c(F)cc3[nH]ncc3c2c2c1CCCC2 false

Next entry: O=S(=O)(NCCCNc1cc(-c2cn(-c3ccccc3)nc2-c2cccc(O)c2)ccn1)c1cccc2ccccc12 false

Next entry: Oc1ccc2ccccc2c1N=Nc1ccccn1 false

---
Status in this test for COc1cc(C)[nH]c(=O)c1CN1CCc2c(Cl)cc([C@H](OC)C3COC3)c(Cl)c2C1=O ? false

Next entry: COc1cccc(-c2nc(-c3ccc(NC(=O)c4ccccc4)cc3)[nH]c2-c2ccnc(Br)c2)c1 false

Next entry: O=C(Nc1ccc(Cl)cc1)c1cc2cc(F)ccc2cc1O false

Next entry: CC1OC(O[C@H]2/C=C/C=C/C=C/C=C/C=C/C=C/C=C/[C@H](C)[C@@H](O)[C@@H](C)[C@H](C)OC(=O)C[C@H](O)C[C@H](O)CC[C@@H](O)[C@H](O)C[C@H](O)C[C@]3(O)C[C@H](O)[C@@H](C(=O)O)[C@H](C2)O3)C(O)C(N)C1O (stereo partly specified) false

Next entry: O=C1/C=C/[C@@H](O)[C@@H]2C[C@@H](O)C[C@H]2/C=C/CCC[C@H](CO)O1 false

----------
# Test system: ACHN renal
# MEASUREMENT_NOTES: NCI tumour cell line growth inhibition, 48 h; in the data active = GI50 below about 0.43 µM; inactive = the rest
# output must be one of Yes = active, No = inactive

Worked examples follow.
Status in this test for Cc1cccc2c1NC(=O)[C@@]21[C@H](C(=O)c2ccccc2)[C@]2(C(=O)Nc3ccccc32)[C@H]2CCCN21 ? No

Next entry: O=C(O[C@H]1CN[C@H](C#Cc2cc3ncnc(Nc4ccc(OCc5cccc(F)c5)c(Cl)c4)c3s2)C1)N1CCOCC1 No

Next entry: CN(C)c1ccc2cc(-c3cc4c(oc3=O)-c3ccccc3OC4O)c(=O)oc2c1 (centres undefined) No

Next entry: COc1cc(C)[nH]c(=O)c1CN1CCc2c(Cl)cc([C@H](OC)C3COC3)c(Cl)c2C1=O No

Now consider the entry below.
Status in this test for O=C1/C(=C/c2ccccc2)CN(CCC(=O)N2C/C(=C\c3ccccc3)C(=O)/C(=C/c3ccccc3)C2)C/C1=C\c1ccccc1 ? No

----------
Measured TGI by item
# System: U251 CNS
# MEASUREMENT_NOTES: NCI tumour cell line growth inhibition, 48 h

Consider the reported TGI for these compounds:
Could you share what TGI was measured for Cc1ccc2c(N/N=C\c3ccco3)cc(C)nc2n1 , tested on U251 CNS? 7.06 µM

Next entry: CCc1n[nH]c(=O)n1NC(=O)c1ccccc1C(=O)O > 100 µM

Next entry: COc1ccc(C(C#N)NCCCCCCNC(C#N)c2ccc(OC)cc2)cc1 (stereo not given) > 100 µM

---
Could you share what TGI was measured for CC(=O)O[C@H]1CC[C@@]2(C)C(=CC[C@@H]3[C@@H]2CC[C@]2(C)c4c(cc(C#N)c(=N)n4C(C)=O)C[C@@H]32)C1 , tested on U251 CNS? > 100 µM

Next entry: COc1cc(C)[nH]c(=O)c1CN1CCc2c(Cl)cc([C@H](OC)C3COC3)c(Cl)c2C1=O > 100 µM

----------
# Test system: LOX IMVI melanoma
# MEASUREMENT_NOTES: NCI tumour cell line growth inhibition, 48 h; in the data active = GI50 below about 0.43 µM; inactive = the rest
# output must be one of active, inactive

Status in this test for C#Cc1cccc(Nc2ncnc3ccc(-c4cnc(Cl)c(NS(C)(=O)=O)c4)cc23)c1 ? active

Now consider the entry below.
Status in this test for O=C1/C(=C/c2ccccc2Br)COc2ccc(O)c(O)c21 ? inactive
